This section presents compounds with their documented growth values.
Test system: U251 CNS
Assay: NCI-60 one-dose screen, 48 h (100 = growth as untreated, 0 = no growth, -100 = all killed)
Conditions: 10 µM unless noted
Compounds without any hit were thinned out: in the full panel of roughly 83,000, 20% have a hit.
Kindly answer with a numeric value in %, unit omitted.

The following compounds have reported results that may help.
[[record]]
compound = "O=C(CN1CCN(c2cc3c(cc2F)c(=O)c(C(=O)O)cn3C2CC2)CC1)Nc1nc(-c2ccc(Cl)cc2)cs1"
readout_value = 8.26

[[record]]
compound = "O=c1c(/C=C/c2ccco2)nnc(SCCN2CCOCC2)n1/N=C/c1ccc([N+](=O)[O-])cc1"
readout_value = 104

[[record]]
compound = "Cn1cc(-c2csc(-c3cn(C)c4ncccc34)n2)c2ccccc21"
readout_value = 25.1

[[record]]
compound = "COc1cc(C2CC(=O)Nc3c2cnn3Cc2ccco2)cc2c1OCCO2 (configuration not stated)"
readout_value = 84.6

[[record]]
compound = "COc1ccc2nc3cc(Cl)ccc3c(N3CCN(c4nccc(Nc5ccccc5)n4)CC3)c2c1"
readout_value = 58.5

[[record]]
compound = "CC(C)(C)n1cc(-c2ccnc(NCCCNS(=O)(=O)c3cccc4ccccc34)c2)c(-c2cccc(O)c2)n1"
readout_value = 27

[[record]]
compound = "CC[C@]12C=CCN3CC[C@@]4(c5ccc(OC)cc5N(C)[C@H]4[C@@](O)(C(=O)OC)[C@@H]1OC(=O)CCC(=O)N[C@@H](Cc1c[nH]c4ccccc14)C(=O)OC)[C@@H]32"
readout_value = 99.3

[[record]]
compound = "O=C(COCc1c(-c2ccccc2)no[n+]1[O-])Nc1ccc(C(=O)/C=C/c2ccc3c(c2)OCO3)cc1"
readout_value = 107


Recorded result, COc1cc(/C=N\NC(=O)CN2CCN(c3cc4c(cc3F)c(=O)c(C(=O)N/N=C/c3ccc(O)c(OC)c3)cn4C3CC3)CC2)ccc1O , growth: 55.3

Recorded result, CN1Cc2c(cc(CN3CCCCC3)n2C)C(c2ccc(Br)cc2)C1 (configuration not stated) , growth: 86.4

Recorded result, COc1cc2c(c(OC)c1OC)-c1ccc(N=NC(N)=S)c(=O)cc1[C@@H](NC(C)=O)CC2 , growth: 9.3

Recorded result, CCN(CC)C12CCCCC1(C)C(C#N)(C#N)C(C#N)=C(N)O2 (configuration not stated) , growth: 103

Recorded result, CCOC(=O)/C=C/c1ccc(C(=O)OCC)[nH]1 , growth: 39.9

Recorded result, CCCCCCCCCCCCCCCC(=O)OCC1OC(n2cnc3c(=S)nc(N)[nH]c32)C(OC(=O)CCCCCCCCCCCCCCC)C1OC(=O)CCCCCCCCCCCCCCC (configuration not stated) , growth: 83.7

---

System: RXF 393 renal
Assay: NCI-60 one-dose screen, 48 h
Settings: 10 µM unless noted
Procedure: Cells are grown in 96 well plates and exposed to the test compound for 48 hours. Compounds are tested at a single concentration, which is 10^-5 M for most compounds. The reported endpoint is percent growth (GI% or GIPRCNT), where numbers from 0 - 100% represent growth inhibition, and numbers from -100% - 0 represent cell death. For example, a value of 40 represents 60% growth inhibition. A value of 0 means no net growth occurred over the course of the experiment. […]
This is part of a sample that, as a whole, favours compounds with a hit. Of some 83,000 tested, about 20% had one in any assay. Active and inactive are the calls of the source. Rule for the calls: active = growth percent below 10; inactive = the rest.
Allowed answers: label 1 = active, label 0 = inactive

[[record]]
molecule = "Oc1ccc(Nc2nccc(-c3ccc4ccccc4c3)n2)cc1"
label_class = "label 0"

[[record]]
molecule = "C/C(Cc1ccc(Cl)cc1)=C(\\c1ccc(OCCN2CCCCCC2)cc1)c1ccc(OC(=O)Cc2ccccc2)cc1"
label_class = "label 0"

[[record]]
molecule = "COc1cnc2c(c1)C(=O)c1c-2n(CCCN2CCN(C)CC2)c(=O)c2cc([N+](=O)[O-])ccc12"
label_class = "label 0"

[[record]]
molecule = "COc1cc(C2CC(=O)Nc3c2cnn3Cc2ccco2)cc2c1OCCO2 (stereo unspecified)"
label_class = "label 0"


Q: What is the recorded call for this molecule in the test? S=c1[nH]nc(CSc2ncnc3c2c(-c2ccccc2)cn3-c2ccc(Cl)cc2)o1
Result: label 0

Q: What is the recorded call for this molecule in the test? CCN(CC)Cc1cc(Nc2c3ccccc3nc3cc(Cl)ccc23)ccc1O
Result: label 1

Q: What is the recorded call for this molecule in the test? CC[C@H](Nc1cc(C)nc(N)n1)c1nc2cccc(NCc3ccc(C(=O)NO)cc3)c2c(=O)n1-c1ccccc1
Result: label 1

Data credit: PubChem BioAssay (NCI)
